B1: MIA2 (parent)
chain: SVIEPVQESSFRSRKIAVEDENDL

variants of: B1; assay: protein stability index of a GFP-peptide fusion (GPS, HEK-293T) (PSI 1-6); higher = more stable; conditions: c terminus: a fixed tail appended;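 also: lentivirally expressed fusions sorted by FACS into six bins by GFP to DsRed ratio, PSI derived from sequencing read proportions per bin multiplied by bin number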
protein stability index by entry:
metric_name: protein stability index

>  <mutant_code>
V6T

>  <metric_name>
protein stability index

>  <reported_value>
5.39

$$$$
>  <mutant_code>
E8V

>  <metric_name>
protein stability index

>  <reported_value>
5.14

$$$$
>  <mutant_code>
S1H

>  <metric_name>
protein stability index

>  <reported_value>
5.52

$$$$
>  <mutant_code>
S1R

>  <metric_name>
protein stability index

>  <reported_value>
5.32

$$$$
>  <mutant_code>
I16C

>  <metric_name>
protein stability index

>  <reported_value>
4.17

$$$$
>  <mutant_code>
V6Y

>  <metric_name>
protein stability index

>  <reported_value>
4.91

$$$$
>  <mutant_code>
E4W

>  <metric_name>
protein stability index

>  <reported_value>
3.74

$$$$
>  <mutant_code>
K15R

>  <metric_name>
protein stability index

>  <reported_value>
5.43

$$$$
>  <mutant_code>
L24F

>  <metric_name>
protein stability index

>  <reported_value>
5.19

$$$$
>  <mutant_code>
A17V

>  <metric_name>
protein stability index

>  <reported_value>
5.3

$$$$
>  <mutant_code>
L24I

>  <metric_name>
protein stability index

>  <reported_value>
4.66

$$$$
>  <mutant_code>
V6C

>  <metric_name>
protein stability index

>  <reported_value>
5.66

$$$$
>  <mutant_code>
S9A

>  <metric_name>
protein stability index

>  <reported_value>
5.35

$$$$
>  <mutant_code>
E4S

>  <metric_name>
protein stability index

>  <reported_value>
5.25

$$$$
>  <mutant_code>
L24A

>  <metric_name>
protein stability index

>  <reported_value>
5.43

$$$$
>  <mutant_code>
V18Q

>  <metric_name>
protein stability index

>  <reported_value>
5.15

$$$$
>  <mutant_code>
R12Y

>  <metric_name>
protein stability index

>  <reported_value>
4.98

$$$$
>  <mutant_code>
P5A

>  <metric_name>
protein stability index

>  <reported_value>
4.3

$$$$
>  <mutant_code>
V18M

>  <metric_name>
protein stability index

>  <reported_value>
4.43

$$$$
>  <mutant_code>
A17P

>  <metric_name>
protein stability index

>  <reported_value>
5.66

$$$$
>  <mutant_code>
V2D

>  <metric_name>
protein stability index

>  <reported_value>
5.83

$$$$
>  <mutant_code>
Q7M

>  <metric_name>
protein stability index

>  <reported_value>
5.04

$$$$
>  <mutant_code>
S10T

>  <metric_name>
protein stability index

>  <reported_value>
4.48

$$$$
>  <mutant_code>
V6R

>  <metric_name>
protein stability index

>  <reported_value>
5.27

$$$$
>  <mutant_code>
F11Y

>  <metric_name>
protein stability index

>  <reported_value>
5.26

$$$$
>  <mutant_code>
P5C

>  <metric_name>
protein stability index

>  <reported_value>
4.74

$$$$
>  <mutant_code>
Q7I

>  <metric_name>
protein stability index

>  <reported_value>
4.93

$$$$
>  <mutant_code>
E21R

>  <metric_name>
protein stability index

>  <reported_value>
4.7

$$$$
>  <mutant_code>
V6Q

>  <metric_name>
protein stability index

>  <reported_value>
5.37

$$$$
>  <mutant_code>
R12F

>  <metric_name>
protein stability index

>  <reported_value>
4.83

$$$$
>  <mutant_code>
S1W

>  <metric_name>
protein stability index

>  <reported_value>
4.46

$$$$
>  <mutant_code>
K15M

>  <metric_name>
protein stability index

>  <reported_value>
5.11

$$$$
>  <mutant_code>
I16T

>  <metric_name>
protein stability index

>  <reported_value>
5.37

$$$$
>  <mutant_code>
E19G

>  <metric_name>
protein stability index

>  <reported_value>
4.5

$$$$
>  <mutant_code>
D23E

>  <metric_name>
protein stability index

>  <reported_value>
5.54

$$$$
>  <mutant_code>
E4F

>  <metric_name>
protein stability index

>  <reported_value>
4.73

$$$$
>  <mutant_code>
E4Y

>  <metric_name>
protein stability index

>  <reported_value>
4.64

$$$$
>  <mutant_code>
V2T

>  <metric_name>
protein stability index

>  <reported_value>
5.31

$$$$
>  <mutant_code>
V2N

>  <metric_name>
protein stability index

>  <reported_value>
5.87

$$$$
>  <mutant_code>
P5T

>  <metric_name>
protein stability index

>  <reported_value>
5.3

$$$$
>  <mutant_code>
V2R

>  <metric_name>
protein stability index

>  <reported_value>
5.5

$$$$
>  <mutant_code>
F11N

>  <metric_name>
protein stability index

>  <reported_value>
5.62

$$$$
>  <mutant_code>
F11M

>  <metric_name>
protein stability index

>  <reported_value>
5.19

$$$$
>  <mutant_code>
S10G

>  <metric_name>
protein stability index

>  <reported_value>
5.78

$$$$
>  <mutant_code>
I3N

>  <metric_name>
protein stability index

>  <reported_value>
5.61

$$$$
>  <mutant_code>
E4T

>  <metric_name>
protein stability index

>  <reported_value>
5.35

$$$$
>  <mutant_code>
F11I

>  <metric_name>
protein stability index

>  <reported_value>
5.15

$$$$
>  <mutant_code>
V6N

>  <metric_name>
protein stability index

>  <reported_value>
4.92

$$$$
>  <mutant_code>
Q7A

>  <metric_name>
protein stability index

>  <reported_value>
4.21

$$$$
>  <mutant_code>
N22K

>  <metric_name>
protein stability index

>  <reported_value>
5.04

$$$$
>  <mutant_code>
A17Y

>  <metric_name>
protein stability index

>  <reported_value>
4.87

$$$$
>  <mutant_code>
I16A

>  <metric_name>
protein stability index

>  <reported_value>
4.72

$$$$
>  <mutant_code>
I3H

>  <metric_name>
protein stability index

>  <reported_value>
4.67

$$$$
>  <mutant_code>
R14Q

>  <metric_name>
protein stability index

>  <reported_value>
5.67

$$$$
>  <mutant_code>
L24C

>  <metric_name>
protein stability index

>  <reported_value>
5.32

$$$$
>  <mutant_code>
I3D

>  <metric_name>
protein stability index

>  <reported_value>
5.9

$$$$
>  <mutant_code>
R12H

>  <metric_name>
protein stability index

>  <reported_value>
5.66

$$$$
>  <mutant_code>
R14Y

>  <metric_name>
protein stability index

>  <reported_value>
4.42

$$$$
>  <mutant_code>
E8R

>  <metric_name>
protein stability index

>  <reported_value>
4.79

$$$$
>  <mutant_code>
R12W

>  <metric_name>
protein stability index

>  <reported_value>
4.55

$$$$
>  <mutant_code>
S1V

>  <metric_name>
protein stability index

>  <reported_value>
4.33

$$$$
>  <mutant_code>
I3C

>  <metric_name>
protein stability index

>  <reported_value>
5.5

$$$$
>  <mutant_code>
S13Q

>  <metric_name>
protein stability index

>  <reported_value>
5.03

$$$$
>  <mutant_code>
D23P

>  <metric_name>
protein stability index

>  <reported_value>
4.28

$$$$
>  <mutant_code>
K15F

>  <metric_name>
protein stability index

>  <reported_value>
5.03

$$$$
>  <mutant_code>
D20K

>  <metric_name>
protein stability index

>  <reported_value>
5.13

$$$$
>  <mutant_code>
F11C

>  <metric_name>
protein stability index

>  <reported_value>
4.9

$$$$
>  <mutant_code>
E19D

>  <metric_name>
protein stability index

>  <reported_value>
5.03

$$$$
>  <mutant_code>
Q7H

>  <metric_name>
protein stability index

>  <reported_value>
5.34

$$$$
>  <mutant_code>
E19L

>  <metric_name>
protein stability index

>  <reported_value>
4.56

$$$$
>  <mutant_code>
F11R

>  <metric_name>
protein stability index

>  <reported_value>
5.67

$$$$
>  <mutant_code>
A17W

>  <metric_name>
protein stability index

>  <reported_value>
4.92

$$$$
>  <mutant_code>
S13V

>  <metric_name>
protein stability index

>  <reported_value>
5.23

$$$$
>  <mutant_code>
S13W

>  <metric_name>
protein stability index

>  <reported_value>
4.72

$$$$
>  <mutant_code>
R14C

>  <metric_name>
protein stability index

>  <reported_value>
5.08

$$$$
>  <mutant_code>
S13T

>  <metric_name>
protein stability index

>  <reported_value>
5.66

$$$$
>  <mutant_code>
E21P

>  <metric_name>
protein stability index

>  <reported_value>
4.42

$$$$
>  <mutant_code>
V2H

>  <metric_name>
protein stability index

>  <reported_value>
5.51

$$$$
>  <mutant_code>
D20M

>  <metric_name>
protein stability index

>  <reported_value>
4.8

$$$$
>  <mutant_code>
N22F

>  <metric_name>
protein stability index

>  <reported_value>
4.96

$$$$
>  <mutant_code>
P5R

>  <metric_name>
protein stability index

>  <reported_value>
5.13

$$$$
>  <mutant_code>
E8L

>  <metric_name>
protein stability index

>  <reported_value>
5.02

$$$$
>  <mutant_code>
I16Y

>  <metric_name>
protein stability index

>  <reported_value>
4.98

$$$$
>  <mutant_code>
I16S

>  <metric_name>
protein stability index

>  <reported_value>
5.45

$$$$
>  <mutant_code>
N22H

>  <metric_name>
protein stability index

>  <reported_value>
5.43

$$$$
>  <mutant_code>
E4Q

>  <metric_name>
protein stability index

>  <reported_value>
4.7

$$$$
>  <mutant_code>
S10H

>  <metric_name>
protein stability index

>  <reported_value>
5.77

$$$$
>  <mutant_code>
S10D

>  <metric_name>
protein stability index

>  <reported_value>
5.54

$$$$
>  <mutant_code>
D20G

>  <metric_name>
protein stability index

>  <reported_value>
5.21

$$$$
>  <mutant_code>
S9P

>  <metric_name>
protein stability index

>  <reported_value>
5.66

$$$$
>  <mutant_code>
F11P

>  <metric_name>
protein stability index

>  <reported_value>
5.08

$$$$
>  <mutant_code>
Q7E

>  <metric_name>
protein stability index

>  <reported_value>
5.25

$$$$
